Recorded MIC in HAI values for a group of binders are listed next.
# Target entity: CsfD, tip adhesin of CS4 fimbriae on wild type ETEC strain BANG10-SP (Escherichia coli (ETEC) strain BANG10-SP)
# Method summary: cell-based or functional assay
Measured quantity: MIC in HAI

• anti-CsbD mouse mAb P9A5 (antibody, V domains shown, Isotype n.d) VH: EVQLQQFGAEVVKPGASVKISCKASGYTFTDYNIDWVKQSHGESLEWIGDISPNSEGTTYNQKFKGQATLTIDKSSTTAYMELRSLTSEDSAVYYCARGSGIWNGLDYWGQGTSVTVSS VL: DIVMTQSHKFMSTSVGDRVSITCKASQDVSTAVAWYQQKPGQSPQLLIYSSSYRYVGVPDRFTGSGSGTDFTFTISSVQAEDLAVYYCHQHYSLPYTFGGGTKLEIK = > 250 µg/mL
• anti-CfaE mouse mAb P8D10 (antibody, V domains shown, also called full length P8D10 mAb) VH: QIQLVQSGPELKKPGETVKISCKASGYTFTNYGMNWVKQAPGKGLKWMGWINTYTGQSTYADDFKGRFAFSLETSASTAHLQISNLKNEDAATYFCARMEYGNYENALDYWGQGTSVTVSS VL: DIVMTQSHKFMSTSIGDRVSITCKASQDVSTAVVWYQQKPGHSPKLLIYSASYRYTGVPDRFTGSGSGTDFTFTISSVQAEDLAVYYCLQHFSTPRTFGGGTNLEIK = > 250 µg/mL
• anti-CfaE mouse mAb P5C7 (antibody, V domains shown) VH: QIQLVQSGPELKKPGETVKISCKASGYTFTNYGMNWVKQAPGKGLKWMGWINTYTGEPTYTDDFKGRFAFSLETSASTAYLQINSLKTEDTATYFCARMEYGNYENAMDSWGQGTSVTVSS VL: DTVMTQSHKFMSTSVGDRVSITCKASQDVSTAVVWYQQKPGQSPKLLIYSASYRYTGVPDRFTGSGSGTDFTFTISSVQAEDLAVYYCLQHFNIPRTFGGGTKLEIK = > 250 µg/mL
